MEASURED ON: Cytochrome P450 2C19 (Homo sapiens)
TEST NAME: Cytochrome panel assay with activity outcomes
DETAILS: recombinant CYP, pro-luciferin dealkylation, luminescence, p450-cyp2c19; series mostly up to 57.1 µM
In all, about 16,000 compounds went through this assay and about 5,800 (36%) were called active. Inconclusive results (about 23%) are left out. Calls come from the whole dose curve; as a rule, active = well fitted curve in the direction sought with a large enough effect; inconclusive = small, poorly fitted or top-dose-only effect, or effect the other way; inactive = no such curve, though single readings can be large or run the other way. The list shows a part of the results.
Parameter call: string, one of yes (1) for active, no (0) for inactive

Use the examples below as a reference point.
[[record]]
compound = "COc1cc(Cl)c(CC(=O)c2c[nH]c3ccccc23)cc1OC"
class_name = "yes (1)"

[[record]]
compound = "O=C(CSc1nnc(-c2ccccn2)n1Cc1ccco1)Nc1ccc2c(c1)OCO2"
class_name = "yes (1)"

[[record]]
compound = "Cc1cc(Cl)ccc1OCC(=O)N/N=C1\\CCCc2ccccc21"
class_name = "no (0)"


Status in this test for O=c1onc2n1-c1cc(Br)ccc1OC2 ?
no (0)

Status in this test for CC(C(=O)NC1CCCC1)N(C(=O)c1ccc(-c2ccccc2)[nH]1)c1ccccc1F (stereo unspecified) ?
yes (1)

Status in this test for O=C(OCCN1CCCCC1)c1c[nH]c2ccccc12 ?
no (0)

Status in this test for O=C(N/N=C1\CCCc2ccccc21)c1ccc([N+](=O)[O-])cc1Cl ?
yes (1)

Status in this test for Cc1cc(NC(=O)CSc2nnc(-c3ccccc3)n2Cc2ccco2)no1 ?
yes (1)

Status in this test for CN1CCN(c2ncc3nc(-c4cc(F)cc(F)c4)c(=O)n(CCc4ccccc4)c3n2)CC1 ?
no (0)

Status in this test for O=C(O)c1nc(-c2ccccc2)[nH]c1C(=O)O ?
yes (1)

Status in this test for CN1[C@@H]2CC[C@H]1CC(OC(=O)c1c[nH]c3ccccc13)C2 (stereo partly specified) ?
no (0)

Origin of measurements: PubChem BioAssay AID1851
